Origin of the recorded values: patent US11390660B2

Target: HLA-A*02:01 (Homo sapiens, UniProt P04439, D140Y/D185E/D98H/E176V/E277Q/G131W/G231S/I119V/I121R/I166T/I218V/L300P/L318F/N151K/N90K/P208A/P217A/Q86G/Q94H/R138H/R169H/T345S)
Experiment: MHC binding assay: UV-ligand exchange with β2m ELISA
Conditions: peptide exchange yield, binding to HLA-A*02:01

[
  {
    "substance": "22 (VLVSSVLGV; listed as Homo sapiens) [compound 22]",
    "Peptide exchange": "+++ (>50 = +++)"
  },
  {
    "substance": "53 (VMHDSSFSV; listed as Homo sapiens) [compound 53]",
    "Peptide exchange": "++++ (> 75% = ++++)"
  },
  {
    "substance": "40 (GLLGGVIMMV; listed as Homo sapiens) [compound 40]",
    "Peptide exchange": "++++ (> 75% = ++++)"
  },
  {
    "substance": "25 (ILLELFTHV; listed as Homo sapiens) [compound 25]",
    "Peptide exchange": "++++ (> 75% = ++++)"
  },
  {
    "substance": "52 (ALISEKLETL; listed as Homo sapiens) [compound 52]",
    "Peptide exchange": "+++ (>50 = +++)"
  },
  {
    "substance": "31 (ALLTAVTNV; listed as Homo sapiens) [compound 31]",
    "Peptide exchange": "+++ (>50 = +++)"
  },
  {
    "substance": "41 (YIDDIFSGV; listed as Homo sapiens) [compound 41]",
    "Peptide exchange": "++++ (> 75% = ++++)"
  },
  {
    "substance": "3 (GLDGATYTV; listed as Homo sapiens) [compound 3]",
    "Peptide exchange": "+++ (>50 = +++)"
  },
  {
    "substance": "5 (SLFDEVRQI; listed as Homo sapiens) [compound 5]",
    "Peptide exchange": "++++ (> 75% = ++++)"
  },
  {
    "substance": "11 (ALDPIIHGL; listed as Homo sapiens) [compound 11]",
    "Peptide exchange": "++++ (> 75% = ++++)"
  },
  {
    "substance": "20 (ALLGFVTDL; listed as Homo sapiens) [compound 20]",
    "Peptide exchange": "++++ (> 75% = ++++)"
  },
  {
    "substance": "42 (FLSGYYVTL; listed as Homo sapiens) [compound 42]",
    "Peptide exchange": "++++ (> 75% = ++++)"
  },
  {
    "substance": "48 (ILAETQPEL; listed as Homo sapiens) [compound 48]",
    "Peptide exchange": "+++ (>50 = +++)"
  },
  {
    "substance": "30 (TLLDRVAVI; listed as Homo sapiens) [compound 30]",
    "Peptide exchange": "+++ (>50 = +++)"
  },
  {
    "substance": "47 (GLVEQLYDL; listed as Homo sapiens) [compound 47]",
    "Peptide exchange": "+++ (>50 = +++)"
  },
  {
    "substance": "13 (ALQNKVVAL; listed as Homo sapiens) [compound 13]",
    "Peptide exchange": "+++ (>50 = +++)"
  },
  {
    "substance": "23 (GLGPNLVGV; listed as Homo sapiens) [compound 23]",
    "Peptide exchange": "++++ (> 75% = ++++)"
  },
  {
    "substance": "37 (VLLATVTEL; listed as Homo sapiens) [compound 37]",
    "Peptide exchange": "+++ (>50 = +++)"
  },
  {
    "substance": "26 (SVLAGVVGV; listed as Homo sapiens) [compound 26]",
    "Peptide exchange": "++++ (> 75% = ++++)"
  },
  {
    "substance": "16 (KLNSSIQYV; listed as Homo sapiens) [compound 16]",
    "Peptide exchange": "+++ (>50 = +++)"
  },
  {
    "substance": "50 (TLSTVIATV; listed as Homo sapiens) [compound 50]",
    "Peptide exchange": "++++ (> 75% = ++++)"
  },
  {
    "substance": "10 (AILDVVVNL; listed as Homo sapiens) [compound 10]",
    "Peptide exchange": "++++ (> 75% = ++++)"
  },
  {
    "substance": "27 (VLNPETTVV; listed as Homo sapiens) [compound 27]",
    "Peptide exchange": "+++ (>50 = +++)"
  },
  {
    "substance": "15 (GLLSVELRV; listed as Homo sapiens) [compound 15]",
    "Peptide exchange": "++++ (> 75% = ++++)"
  },
  {
    "substance": "14 (FLVDSLISA; listed as Homo sapiens) [compound 14]",
    "Peptide exchange": "++++ (> 75% = ++++)"
  },
  {
    "substance": "32 (GLIENTYQL; listed as Homo sapiens) [compound 32]",
    "Peptide exchange": "+++ (>50 = +++)"
  },
  {
    "substance": "9 (SLYPGTETM; listed as Homo sapiens) [compound 9]",
    "Peptide exchange": "+++ (>50 = +++)"
  },
  {
    "substance": "46 (NMDDVIYYV; listed as Homo sapiens) [compound 46]",
    "Peptide exchange": "+++ (>50 = +++)"
  },
  {
    "substance": "12 (ALAPSEGVQAA; listed as Homo sapiens) [compound 12]",
    "Peptide exchange": "++++ (> 75% = ++++)"
  },
  {
    "substance": "19 (YLETMNITL; listed as Homo sapiens) [compound 19]",
    "Peptide exchange": "+++ (>50 = +++)"
  },
  {
    "substance": "51 (TVPPVFVSV; listed as Homo sapiens) [compound 51]",
    "Peptide exchange": "+++ (>50 = +++)"
  },
  {
    "substance": "36 (SLLSDIIAL; listed as Homo sapiens) [compound 36]",
    "Peptide exchange": "+++ (>50 = +++)"
  }
]
